- Assay info: Estimated oral LD50 in the mouse
- Condition label: in vivo, estimate, read-out: Evaluation DL 50
- Source text: Dans ce tableau, on indique en outre une estimation de la DL 50 des composés par voie orale chez la souris.
Assay endpoint: LD50

- Compound: "c1cc2occc2c(N2CCNCC2)n1 [EXEMPLE 2, 4-(l-piperazinyl)-furo [3,2-c] pyridine]"
  LD50: "200 mg/kg"
- Compound: "Cc1cc2occc2c(N2CCNCC2)n1"
  LD50: "250 mg/kg"

We next turn to a different compound, shown below.
Consider the compound shown here: c1ccc2nc(N3CCNCC3)ccc2c1 [QUIPAZINE, quipazine, reference compound] What is its recorded LD50?
233 to 376 mg/kg
